# TEST TARGET: Acid ceramidase (Homo sapiens)
# PROCEDURE SUMMARY: Inhibition of recombinant human acid ceramidase expressed in HEK293 cells using N-[(1S,2R)-2-hydroxy-1-(hydroxymethyl)-4-(2-oxochromen-7-yl)-oxybutyl]dodecanamide substrate preincubated for 10 mins
# Type: cell-based
# RUN PARAMETERS: read-out: IC50
pIC50: −log10 of the molar value.
Label Fulfilled when pIC50 is at or above 7; otherwise label Not fulfilled.

Past entries and their recorded results:
>>> qualitative_label("O=C(NCCCCc1ccccc1)n1c(=O)oc2ccc(Cl)cc21")
"Fulfilled"
>>> qualitative_label("O=C(NCCCCCCc1ccccc1)n1c(=O)oc2ccccc21")
"Fulfilled"
>>> qualitative_label("O=C(NCCCCc1ccccc1)n1c(=O)oc2ccc(F)cc21")
"Fulfilled"
>>> qualitative_label("O=C(c1ccccc1)c1ccc2oc(=O)n(C(=O)NCCCCc3ccccc3)c2c1")
"Fulfilled"
>>> qualitative_label("O=C(NCCOCc1ccccc1)n1c(=O)oc2ccccc21")
"Not fulfilled"

Ask | Is pIC50 at least 7? Consider `O=C(NCCCCc1cccs1)n1c(=O)oc2ccccc21`
Reply | Fulfilled

Ask | Is pIC50 at least 7? Consider `O=C(NCCCCc1ccccc1)n1c(=O)oc2ccc(-c3ccccc3)cc21`
Reply | Fulfilled

Ask | Is pIC50 at least 7? Consider `O=C(NCCCCc1ccc([N+](=O)[O-])cc1)n1c(=O)oc2ccccc21`
Reply | Not fulfilled

====

# PROCEDURE SUMMARY: Stability in 1 % DMSO containing phosphate-buffered solution assessed as half life at 10 uM at pH 7.4 under shaking by UPLC method
# Type: physicochemical
# RUN PARAMETERS: phosphate-buffered solution, pH 7.4
READOUT TYPE: half-life at 10 µM

Known results for molecules:
>>> reported_measurement("O=C(NCCCCc1ccccc1)n1c(=O)oc2ccc(-c3ccc(F)cc3)cc21")
"> 5 h"
>>> reported_measurement("COc1ccc(-c2ccc3c(c2)oc(=O)n3C(=O)NCCCCc2ccccc2)cc1")
"2.2 h"
>>> reported_measurement("O=C(NCCCCc1ccccc1)n1c(=O)oc2cc(Cl)ccc21")
"0.967 h"
>>> reported_measurement("O=C(NCCCCc1ccccc1)n1c(=O)oc2cc(Cl)c(Cl)cc21")
"0.917 h"

The recorded half-life at 10 µM for `O=C(NCCCCc1ccccc1)n1c(=O)oc2ccc(-c3ccccc3)cc21` is 4.93 h

The recorded half-life at 10 µM for `O=C(c1ccccc1)c1ccc2c(c1)oc(=O)n2C(=O)NCCCCc1ccccc1` is 1.63 h

The recorded half-life at 10 µM for `O=C(NCCCCc1ccccc1)n1c(=O)oc2cc(-c3ccc(F)cc3)ccc21` is > 5 h

The recorded half-life at 10 µM for `O=C(NCCCCc1ccccc1)n1c(=O)oc2cccc(-c3ccccc3)c21` is 0.117 h

The recorded half-life at 10 µM for `O=C(c1ccc(Cl)cc1)c1ccc2c(c1)oc(=O)n2C(=O)NCCCCc1ccccc1` is 4.57 h

The recorded half-life at 10 µM for `COc1ccc(-c2ccc3oc(=O)n(C(=O)NCCCCc4ccccc4)c3c2)cc1` is 2.93 h

The recorded half-life at 10 µM for `O=C(NCCCCc1ccccc1)n1c(=O)oc2c(-c3ccccc3)cccc21` is > 5 h

The recorded half-life at 10 µM for `O=C(NCCCCc1ccccc1)n1c(=O)oc2cc(-c3ccccc3)ccc21` is > 5 h

====

# TEST TARGET: Acid ceramidase (Homo sapiens)
# Sequence (Q13510 whole entry): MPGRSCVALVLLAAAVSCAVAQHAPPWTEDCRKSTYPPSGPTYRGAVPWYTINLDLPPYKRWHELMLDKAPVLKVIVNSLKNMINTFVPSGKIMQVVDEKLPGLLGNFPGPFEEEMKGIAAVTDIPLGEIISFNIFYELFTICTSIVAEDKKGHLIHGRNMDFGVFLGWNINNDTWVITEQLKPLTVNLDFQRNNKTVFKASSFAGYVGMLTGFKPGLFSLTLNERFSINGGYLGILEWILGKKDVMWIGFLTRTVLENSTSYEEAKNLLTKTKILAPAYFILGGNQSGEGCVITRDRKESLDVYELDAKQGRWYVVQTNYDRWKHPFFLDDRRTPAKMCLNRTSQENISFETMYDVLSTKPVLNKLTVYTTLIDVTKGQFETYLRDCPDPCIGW
# PROCEDURE SUMMARY: Inhibition of recombinant human acid ceramidase expressed in HEK293 cells using N-[(1S,2R)-2-hydroxy-1-(hydroxymethyl)-4-(2-oxochromen-7-yl)-oxybutyl]dodecanamide substrate preincubated for 10 mins
# Type: cell-based
# RUN PARAMETERS: read-out: IC50
READOUT TYPE: IC50 (nM)
The reply should contain only the number, in nM.

Known results for compounds:
>>> reported_measurement("COc1ccc(-c2ccc3oc(=O)n(C(=O)NCCCCc4ccccc4)c3c2)cc1")
67
>>> reported_measurement("O=C(NCCSCc1ccccc1)n1c(=O)oc2ccccc21")
65
>>> reported_measurement("O=C(NCCCCc1ccc2ccccc2c1)n1c(=O)oc2ccccc21")
71

The compound `O=C(NCCc1ccccc1)n1c(=O)oc2ccccc21` , when measured on Acid ceramidase (Homo sapiens), yielded IC50 of 121

The compound `O=C(NCCCCc1ccccc1)n1c(=O)oc2cc(F)ccc21` , when measured on Acid ceramidase (Homo sapiens), yielded IC50 of 31

The compound `Cc1ccc(CCCCNC(=O)n2c(=O)oc3ccccc32)cc1` , when measured on Acid ceramidase (Homo sapiens), yielded IC50 of 25

The compound `O=C(NCCCCc1ccccc1)n1c(=O)oc2ccc(C(F)(F)F)cc21` , when measured on Acid ceramidase (Homo sapiens), yielded IC50 of 18
